Just for reference, the supplement of paper PMC10724198 is where these values come from.

# Tested on: Saccharomyces cerevisiae;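 further: PSI is a weighted mean of sequencing reads over stability bins, variants kept only with over 10 reads, mCherry proximal and sfGFP distal, peptide attached via GGGS linker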
# experimental details: protein stability index of tFT-peptide fusion (C-terminal peptide) (PSI (0-1 scale)); higher = more stable (slower turnover)
# condition summary: genetic background: wild type; temperature: 30 C
observation type: protein stability index

[[record]]
sequence_input = "EIGWEGLAGRGG"
target_under_test = "Saccharomyces cerevisiae"
measured_value = 0.754

[[record]]
sequence_input = "TLDKGRFSPAHL"
target_under_test = "Saccharomyces cerevisiae"
measured_value = 0.754

[[record]]
sequence_input = "QFIPIRSIIMRG"
target_under_test = "Saccharomyces cerevisiae"
measured_value = 0.73

[[record]]
sequence_input = "KNTNQKKKKKNT"
target_under_test = "Saccharomyces cerevisiae"
measured_value = 0.718

[[record]]
sequence_input = "SSRSQTVRTFAL"
target_under_test = "Saccharomyces cerevisiae"
measured_value = 0.689

[[record]]
sequence_input = "LDSGSVYMSRDI"
target_under_test = "Saccharomyces cerevisiae"
measured_value = 0.652

[[record]]
sequence_input = "GGGGGWGVAGGV"
target_under_test = "Saccharomyces cerevisiae"
measured_value = 0.689

[[record]]
sequence_input = "PSPALPANQSFY"
target_under_test = "Saccharomyces cerevisiae"
measured_value = 0.665

[[record]]
sequence_input = "LPAPAGPEPPRT"
target_under_test = "Saccharomyces cerevisiae"
measured_value = 0.675

[[record]]
sequence_input = "LSSGCSVKLRAQ"
target_under_test = "Saccharomyces cerevisiae"
measured_value = 0.67

[[record]]
sequence_input = "EISKVRGAVDRK"
target_under_test = "Saccharomyces cerevisiae"
measured_value = 0.689

[[record]]
sequence_input = "SLLLPLPLPVRL"
target_under_test = "Saccharomyces cerevisiae"
measured_value = 0.582

[[record]]
sequence_input = "VLGPRFCFVCHA"
target_under_test = "Saccharomyces cerevisiae"
measured_value = 0.346

[[record]]
sequence_input = "KRTEHTHDRKIK"
target_under_test = "Saccharomyces cerevisiae"
measured_value = 0.721

[[record]]
sequence_input = "WLKVRINFYKRK"
target_under_test = "Saccharomyces cerevisiae"
measured_value = 0.52

[[record]]
sequence_input = "PPPAPPLTFGHV"
target_under_test = "Saccharomyces cerevisiae"
measured_value = 0.685

[[record]]
sequence_input = "SPGLQPVACPSF"
target_under_test = "Saccharomyces cerevisiae"
measured_value = 0.639

[[record]]
sequence_input = "QKTYHATQTRRR"
target_under_test = "Saccharomyces cerevisiae"
measured_value = 0.684

[[record]]
sequence_input = "VGGGGEWCLVRL"
target_under_test = "Saccharomyces cerevisiae"
measured_value = 0.685

[[record]]
sequence_input = "TLATHCDVHFTR"
target_under_test = "Saccharomyces cerevisiae"
measured_value = 0.734

[[record]]
sequence_input = "RVRGTLMLRSYG"
target_under_test = "Saccharomyces cerevisiae"
measured_value = 0.64

[[record]]
sequence_input = "RFCLPLRLPVTT"
target_under_test = "Saccharomyces cerevisiae"
measured_value = 0.45

